Recorded pIC50 values for a group of molecules are listed next.
system: U937 cells (human monocytic cell line); assay: Pam2CSK4-induced TNF-α secretion inhibition in PMA-differentiated U937 cells; format: cell-based; settings: U-937, U937 cells differentiated with PMA, read-out: TNF-α production inhibition grade (IC50)
pIC50: −log10 of the molar value.

>  <SMILES>
C[C@H](CS(=O)(=O)O)NC(=O)CC[C@@H](C)[C@H]1CC[C@H]2[C@@H]3CC[C@@H]4C[C@H](O)CC[C@]4(C)[C@H]3CC[C@]12C

>  <pIC50>
≤ 5.70

$$$$
>  <SMILES>
C[C@H](CCC(=O)N1CCC[C@H](S(=O)(=O)O)C1)[C@H]1CC[C@H]2[C@@H]3[C@H](O)C[C@@H]4C[C@H](O)CC[C@]4(C)[C@H]3C[C@H](O)[C@]12C

>  <pIC50>
≤ 5.70

$$$$
>  <SMILES>
C[C@H](CCC(=O)N1CCC[C@@H](S(=O)(=O)O)C1)[C@H]1CC[C@H]2[C@@H]3CC[C@@H]4C[C@H](O)CC[C@]4(C)[C@H]3CC[C@]12C

>  <pIC50>
6.00 to 6.30

$$$$
>  <SMILES>
C[C@H](CCC(=O)N1CCC[C@@H](S(=O)(=O)O)C1)[C@H]1CC[C@H]2[C@@H]3CC[C@@H]4CC(=O)CC[C@]4(C)[C@H]3CC[C@]12C

>  <pIC50>
6.00 to 6.30

$$$$
>  <SMILES>
CC(C)[C@H](CS(=O)(=O)O)NC(=O)CC[C@@H](C)[C@H]1CC[C@H]2[C@@H]3CC[C@@H]4C[C@H](O)CC[C@]4(C)[C@H]3CC[C@]12C

>  <pIC50>
> 6.30

$$$$
